target: Human glucagon receptor (human, UniProt P47871 26-477); assay: cell-based or functional assay
Where no end group is shown, it is not given here. [ ]: non-standard residue; d: D form. Ac3c = NC1(C(=O)O)CC1
Assignment: determine reported cAMP production with saturated glucagon peptide; test compound 10 µM for the given binders.
Give a bare numeral; the unit pmol/ml/µg prt is implied.

The reported value for HXQGTXTSDXX (not fully specified; ACP at 2; α-Me-2F-Phe at 6; Bip(OMe) at 10; Bip(2CF3) at 11) [Seq. ID. No. 36: H-(ACP)-QGT-(α-Me-2F-Phe)-TSD-Bip(OMe)-Bip(2CF3)] in terms of cAMP production with saturated glucagon peptide; test compound 10 µM is 0

The reported value for HAQGTFTSD[Bip(OMe)][Bip(2CF3)] [Seq. ID. No. 12: HAQGTFTSD-Bip(OMe)-Bip(2CF3)] in terms of cAMP production with saturated glucagon peptide; test compound 10 µM is 0

The reported value for HAQGTFTSD[Bip(OMe)][Bip(2Me)] (not fully specified (C-terminus); printed as HAQGTFTSD-Bip(OMe)-Bip(2Me)) [Seq. ID. No. 9: HAQGTFTSD-Bip(OMe)-Bip(2Me)] in terms of cAMP production with saturated glucagon peptide; test compound 10 µM is 6

The reported value for H[Ac3c]QGTFTSD[Bip(OMe)][Bip(2F)] [Seq. ID. No. 19: H-(ACP)-QGTFTSD-Bip(OMe)-Bip(2F)] in terms of cAMP production with saturated glucagon peptide; test compound 10 µM is 0

The reported value for HSQGTFTSD[Bip(OMe)][Bip(2F)] (not fully specified (C-terminus); printed as HSQGTFTSD-Bip(OMe)-Bip(2F)) [Seq. ID. No. 7: HSQGTFTSD-Bip(OMe)-Bip(2F)] in terms of cAMP production with saturated glucagon peptide; test compound 10 µM is 0

The reported value for HXQGTXTSDXX (ACP at 2; α-Me-2F-Phe at 6; Bip(OMe) at 10; Bip(2Me) at 11) [Seq. ID. No. 33: H-(ACP)-QGT-(α-Me-2F-Phe)-TSD-Bip(OMe)-Bip(2Me)] in terms of cAMP production with saturated glucagon peptide; test compound 10 µM is 0

The reported value for H[Ac3c]QGTFTSD[Bip(OMe)][Bip(2CF3)] (not fully specified) [Seq. ID. No. 20: H-(ACP)-QGTFTSD-Bip(OMe)-Bip(2CF3)] in terms of cAMP production with saturated glucagon peptide; test compound 10 µM is 0

The reported value for HAQGTFTSD[Bip(OMe)][Bip(2F)] [Seq. ID. No. 11: HAQGTFTSD-Bip(OMe)-Bip(2F)] in terms of cAMP production with saturated glucagon peptide; test compound 10 µM is 0

The reported value for H[Ac3c]QGTFTSD[Bip(OMe)][Bip(2Me)] [Seq. ID. No. 17: H-(ACP)-QGTFTSD-Bip(OMe)-Bip(2Me)] in terms of cAMP production with saturated glucagon peptide; test compound 10 µM is 0

The reported value for HSQGTFTSD[Bip(OMe)][Bip(2Me)]-NH2 [Seq. ID. No. 5: HSQGTFTSD-Bip(OMe)-Bip(2Me)] in terms of cAMP production with saturated glucagon peptide; test compound 10 µM is 12

The reported value for HSQGTXTSDXX (α-Me-2F-Phe at 6; Bip(OMe) at 10; Bip(2CF3) at 11) [Seq. ID. No. 24: HSQGT-(α-Me-2F-Phe)-TSD-Bip(OMe)-Bip(2CF3)] in terms of cAMP production with saturated glucagon peptide; test compound 10 µM is 0

The reported value for H[Ac3c]QGTFTSD[Bip(OMe)][Bip(Pyr)] [Seq. ID. No. 18: H-(ACP)-QGTFTSD-Bip(OMe)-Bip(Pyr)] in terms of cAMP production with saturated glucagon peptide; test compound 10 µM is 0

The reported value for HXQGTXTSDXX (Aib at 2; α-Me-2F-Phe at 6; Bip(OMe) at 10; Bip(2F) at 11) [Seq. ID. No. 31: H-Aib-QGT-(α-Me-2F-Phe)-TSD-Bip(OMe)-Bip(2F)] in terms of cAMP production with saturated glucagon peptide; test compound 10 µM is 0
